As shown below, each of these molecules has a reported pIC50 value.
measurement.target: calcium release by IP3 (IP3 receptor) (Mus musculus)
Construct: from tissue; host or cells: mouse cerebellum microsomes
Sequence (P11881 whole entry): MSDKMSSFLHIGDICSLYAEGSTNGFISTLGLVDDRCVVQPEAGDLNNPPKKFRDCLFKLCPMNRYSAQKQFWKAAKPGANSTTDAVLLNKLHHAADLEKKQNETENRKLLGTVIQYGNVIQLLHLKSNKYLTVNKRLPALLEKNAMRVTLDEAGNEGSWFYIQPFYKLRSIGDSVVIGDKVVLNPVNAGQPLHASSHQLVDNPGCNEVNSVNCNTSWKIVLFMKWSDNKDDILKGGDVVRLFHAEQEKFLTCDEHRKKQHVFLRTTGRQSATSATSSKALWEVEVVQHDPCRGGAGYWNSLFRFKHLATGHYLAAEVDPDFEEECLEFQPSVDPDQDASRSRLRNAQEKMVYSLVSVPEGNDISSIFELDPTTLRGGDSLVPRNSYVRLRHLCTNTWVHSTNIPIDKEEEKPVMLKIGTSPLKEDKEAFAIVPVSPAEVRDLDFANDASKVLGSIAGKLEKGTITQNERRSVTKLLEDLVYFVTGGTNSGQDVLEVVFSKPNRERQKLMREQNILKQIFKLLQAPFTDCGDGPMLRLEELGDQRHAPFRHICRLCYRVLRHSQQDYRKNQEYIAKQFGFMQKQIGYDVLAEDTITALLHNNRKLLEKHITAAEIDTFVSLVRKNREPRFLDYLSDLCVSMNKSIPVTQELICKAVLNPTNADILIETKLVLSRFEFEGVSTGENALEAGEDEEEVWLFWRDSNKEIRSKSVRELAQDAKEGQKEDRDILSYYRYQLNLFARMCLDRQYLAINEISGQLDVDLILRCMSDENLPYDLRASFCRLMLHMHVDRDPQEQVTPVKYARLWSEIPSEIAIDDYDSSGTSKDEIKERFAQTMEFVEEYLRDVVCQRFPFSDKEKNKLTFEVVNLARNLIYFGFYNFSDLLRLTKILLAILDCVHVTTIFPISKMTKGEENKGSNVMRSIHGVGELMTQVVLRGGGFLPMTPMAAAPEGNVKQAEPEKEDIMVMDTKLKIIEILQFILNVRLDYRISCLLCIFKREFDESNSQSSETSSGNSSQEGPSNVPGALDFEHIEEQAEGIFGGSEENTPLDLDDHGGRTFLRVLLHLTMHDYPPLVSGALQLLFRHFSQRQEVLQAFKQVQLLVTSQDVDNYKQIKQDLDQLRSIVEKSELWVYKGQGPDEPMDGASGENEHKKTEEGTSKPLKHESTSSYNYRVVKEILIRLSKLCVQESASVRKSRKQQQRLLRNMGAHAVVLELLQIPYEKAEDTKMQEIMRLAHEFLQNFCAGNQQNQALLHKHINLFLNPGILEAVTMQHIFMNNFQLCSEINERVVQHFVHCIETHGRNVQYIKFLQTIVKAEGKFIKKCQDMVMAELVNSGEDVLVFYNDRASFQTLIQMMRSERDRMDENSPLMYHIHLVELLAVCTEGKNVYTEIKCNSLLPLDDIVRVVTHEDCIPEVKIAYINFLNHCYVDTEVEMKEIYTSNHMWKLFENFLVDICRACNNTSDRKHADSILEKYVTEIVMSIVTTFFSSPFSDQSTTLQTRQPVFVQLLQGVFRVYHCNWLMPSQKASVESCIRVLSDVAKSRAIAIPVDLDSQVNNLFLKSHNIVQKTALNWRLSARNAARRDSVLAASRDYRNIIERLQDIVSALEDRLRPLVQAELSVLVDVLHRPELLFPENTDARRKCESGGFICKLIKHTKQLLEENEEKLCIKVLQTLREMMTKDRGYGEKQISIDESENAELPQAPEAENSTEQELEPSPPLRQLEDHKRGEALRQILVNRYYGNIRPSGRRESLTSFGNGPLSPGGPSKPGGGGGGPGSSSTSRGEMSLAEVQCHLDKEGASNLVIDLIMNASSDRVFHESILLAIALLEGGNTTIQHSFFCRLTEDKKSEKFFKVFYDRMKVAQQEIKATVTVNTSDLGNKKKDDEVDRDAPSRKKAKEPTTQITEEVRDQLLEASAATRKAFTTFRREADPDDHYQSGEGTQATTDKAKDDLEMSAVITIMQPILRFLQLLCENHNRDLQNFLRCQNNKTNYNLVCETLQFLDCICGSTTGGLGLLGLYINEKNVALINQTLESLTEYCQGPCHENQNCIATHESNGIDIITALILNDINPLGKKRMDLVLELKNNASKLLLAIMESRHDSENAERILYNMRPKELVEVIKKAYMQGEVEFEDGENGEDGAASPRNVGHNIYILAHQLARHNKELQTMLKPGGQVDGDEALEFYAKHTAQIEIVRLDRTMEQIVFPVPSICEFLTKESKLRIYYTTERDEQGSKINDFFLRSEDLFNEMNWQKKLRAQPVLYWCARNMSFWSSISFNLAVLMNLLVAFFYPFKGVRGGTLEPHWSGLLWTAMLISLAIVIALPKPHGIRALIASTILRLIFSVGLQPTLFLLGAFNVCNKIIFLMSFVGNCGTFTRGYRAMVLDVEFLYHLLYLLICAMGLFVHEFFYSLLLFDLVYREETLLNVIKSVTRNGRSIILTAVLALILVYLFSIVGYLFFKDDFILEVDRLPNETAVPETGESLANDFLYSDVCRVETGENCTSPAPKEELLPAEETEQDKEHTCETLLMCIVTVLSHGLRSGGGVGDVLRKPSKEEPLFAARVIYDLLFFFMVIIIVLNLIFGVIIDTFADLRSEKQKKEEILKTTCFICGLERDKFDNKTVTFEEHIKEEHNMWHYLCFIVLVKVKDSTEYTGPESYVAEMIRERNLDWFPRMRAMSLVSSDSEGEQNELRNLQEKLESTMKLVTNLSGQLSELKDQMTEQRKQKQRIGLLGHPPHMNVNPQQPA
assay.text: Inhibitory activity against calcium release by IP3 (cerebellum microsomes, fura2)
Assay type: biochemical
applied.conditions: mouse cerebellum microsomes; calcium released with 30 nM of IP3 defined as 100%; read-out: IC50
pIC50: −log10 of the molar value.
experimental.endpoint: pIC50

>  <molecule>
Cc1ccc(B(OCCN)c2ccc(C)c(Cl)c2)cc1Cl [(30)]

>  <measurement.target>
calcium release by IP3 (IP3 receptor) (Mus musculus)

>  <measured>
5.59

$$$$
>  <molecule>
NCCOB(c1ccccc1)c1ccc(COCc2ccc(B(OCCN)c3ccccc3)cc2)cc1 [Compound (90)]

>  <measurement.target>
calcium release by IP3 (IP3 receptor) (Mus musculus)

>  <measured>
5.22

$$$$
>  <molecule>
Cc1ccc(B(OC(C)c2ccccn2)c2ccc(C)c(Cl)c2)cc1Cl (stereo not drawn) [Compound (53)]

>  <measurement.target>
calcium release by IP3 (IP3 receptor) (Mus musculus)

>  <measured>
5.44

$$$$
>  <molecule>
CC(C)(C)c1ccc(B(OCCN)c2ccc(Cl)cc2)cc1 [(84)]

>  <measurement.target>
calcium release by IP3 (IP3 receptor) (Mus musculus)

>  <measured>
5.35

$$$$
>  <molecule>
OB(c1ccc(Cl)cc1)c1ccc(COCc2ccccc2)cc1 [(3)]

>  <measurement.target>
calcium release by IP3 (IP3 receptor) (Mus musculus)

>  <measured>
5.52

$$$$
>  <molecule>
CCOC(=O)N1CCC(NCC(OB(c2ccc(C)c(Cl)c2)c2ccc(C)c(Cl)c2)c2ccccc2)CC1 (stereo not drawn) [(47)]

>  <measurement.target>
calcium release by IP3 (IP3 receptor) (Mus musculus)

>  <measured>
5.42

$$$$
